# Experimental target: human A2A receptor (Homo sapiens (Human), UniProt P29274)
# Sequence (P29274 whole entry): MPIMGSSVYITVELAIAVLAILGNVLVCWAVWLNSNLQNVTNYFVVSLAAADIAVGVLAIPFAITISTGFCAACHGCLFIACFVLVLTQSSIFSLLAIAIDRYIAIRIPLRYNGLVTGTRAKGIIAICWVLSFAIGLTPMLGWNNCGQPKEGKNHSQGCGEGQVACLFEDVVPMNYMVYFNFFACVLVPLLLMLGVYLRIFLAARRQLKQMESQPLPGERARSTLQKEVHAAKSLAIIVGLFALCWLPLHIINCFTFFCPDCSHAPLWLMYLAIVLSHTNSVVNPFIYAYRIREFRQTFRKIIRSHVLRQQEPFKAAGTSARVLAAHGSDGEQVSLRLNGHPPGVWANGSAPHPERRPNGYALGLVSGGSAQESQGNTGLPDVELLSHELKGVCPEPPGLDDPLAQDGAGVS
# Assay remarks: A2A competition binding assay using Scintillation Proximity technology
# Study conditions: values marked ^: 1 μg of membrane/well (HEK293 cells expressing the human A2a receptor); 0.5 nM tritiated radioligand; Cheng-Prusoff
# Protocol: Binding affinities of compounds of the invention for the human A2A receptor were determined in a competition binding assay using Scintillation Proximity technology. […] The beads were then allowed to settle to the bottom of the wells for 1 hr, after which the membrane-associated radioactivity was determined by scintillation counting in a TopCount microplate reader. Ki values were determined using the Cheng-Prusoff equation. […]
Endpoint label: pKi
Field pKi (float): negative decimal logarithm of the concentration in molar.

Solved cases below.
Q: Could you share which pKi value was measured for COc1cccc2c1nc(N)n1nc([C@@H]3CCCN(C(=O)c4ocnc4C)C3)nc21 [Example 40] ?
Ans: 8.82

Q: Could you share which pKi value was measured for COc1cccc2c1nc(N)n1nc([C@@H]3CCCN(Cc4cnc(C)s4)C3)nc21 [Example 48] ?
Ans: 8.68

Q: Could you share which pKi value was measured for COc1cccc2c1nc(N)n1nc([C@@H]3CCCN(CCCC(F)(F)F)C3)nc21 [Example 16] ?
Ans: 8.12

Q: Could you share which pKi value was measured for CCCCN1CCC[C@@H](c2nc3c4cccc(OC)c4nc(N)n3n2)C1 [Example 7] ?
Ans: 7.54

Q: Could you share which pKi value was measured for Nc1nc2c3c(ccc2c2nc(C4CCCN(CCC(F)(F)F)C4)nn12)OC(F)(F)O3 (single isomer, unassigned) [Example 56A] ?
Ans: 9.10

Q: Could you share which pKi value was measured for COc1cccc2c1nc(N)n1nc([C@@H]3CCCN(Cc4cccnc4)C3)nc21 [Example 45] ?
Ans: 8.42

Continuing:
Q: Could you share which pKi value was measured for COc1cccc2c1nc(N)n1nc([C@@H]3CCCN(CC(C)C)C3)nc21 [Example 8] ?
Ans: 7.35

----------
Listed here: items and their measured Ki.
# Experimental target: human A2A receptor (Homo sapiens (Human))
# Assay remarks: A2A competition binding assay using Scintillation Proximity technology
# Study conditions: 0.25 μg of membranes from HEK293 cells expressing the human A2a receptor per well; 0.5 nM tritiated radioligand; Cheng-Prusoff
Write the value in nM as a bare number.

Solved cases below.
Q: Could you share which Ki value was measured for COc1cccc2c1nc(N)n1nc(C3CN(CC(F)F)CC(F)(F)C3)nc21 (single isomer, unassigned) [Example 34B] ?
Ans: 4.7

Q: Could you share which Ki value was measured for "COc1cccc2c1nc(N)n1nc([C@@H]3CCCN(CC4(C)CC4)C3)nc21" ?
Ans: 20

Q: Could you share which Ki value was measured for "COc1cccc2c1nc(N)n1nc([C@@H]3CCCNC3)nc21" ?
Ans: 93

# context switch: different molecule, same Ki
Q: Could you share which Ki value was measured for COc1cccc2c1nc(N)n1nc(C3CC(F)(F)CCO3)nc21 (single isomer, unassigned) [Example 55A] ?
Ans: 1.9

----------
# Experimental target: human A2A receptor (Homo sapiens (Human), UniProt P29274)
# Assay remarks: A2A competition binding assay using Scintillation Proximity technology
# Study conditions: 0.25 μg of membranes from HEK293 cells expressing the human A2a receptor per well; 0.5 nM tritiated radioligand; Cheng-Prusoff
Endpoint label: pKi
Field pKi (float): negative decimal logarithm of the concentration in molar.

Solved cases below.
Q: Could you share which pKi value was measured for "COc1cccc2c1nc(N)n1nc([C@@H]3CCCN(CCN4CCOCC4)C3)nc21" ?
Ans: 8.82

Q: Could you share which pKi value was measured for COc1cccc2c1nc(N)n1nc(C3CC4CCC3N(CC(F)(F)F)C4)nc21 (single isomer, unassigned) [Example 35D] ?
Ans: 8.00

Q: Could you share which pKi value was measured for "Nc1nc2ccccc2c2nc([C@@H]3CCCN(CC(F)F)C3)nn12" ?
Ans: 7.96

Continuing:
Q: Could you share which pKi value was measured for "COc1cccc2c1nc(N)n1nc([C@@H]3CCCN(C4CCC(F)(F)CC4)C3)nc21" ?
Ans: 8.23

Q: Could you share which pKi value was measured for COc1cccc2c1nc(N)n1nc(C3CCCCN(CC(F)(F)F)C3)nc21 (single isomer, unassigned) [Example 32A] ?
Ans: 9.15

Q: Could you share which pKi value was measured for "COc1cccc2c1nc(N)n1nc([C@@H]3CCCN(C(=O)C(C)(C)F)C3)nc21" ?
Ans: 8.96

Q: Could you share which pKi value was measured for COc1cccc2c1nc(N)n1nc(C3CCCC(CCC(F)(F)F)C3)nc21 (single isomer, unassigned) [Example 29D] ?
Ans: 7.77

Q: Could you share which pKi value was measured for "Nc1nc2cc(Cl)ccc2c2nc([C@@H]3CCCN(CC(F)F)C3)nn12" ?
Ans: 8.89

From: patent US10822338B2
